Give measured normalised cell number for each item. Keep answers brief.
- assayText: EMT-state selective cytotoxicity in co-culture – imaging, PC-3E GFP, TEM4-18 mCherry, primary screen (AID 1345086);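 also: cells exposed to compound for 72 h before imaging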
- experimentalParameters: PC-3E GFP / TEM4-18 mCherry co-culture, imaging cell counts; measured here: mesenchymal TEM4-18 mCherry cell survival; at 1 µM
Numbers only.

[[record]]
compound = "CCCC(C(=O)OCCN(CC)CC)(c1ccccc1)c1ccccc1"
observed = 1.28

[[record]]
compound = "CN1CCC(OC(c2ccccc2)c2ccccc2)CC1"
observed = 1.2

[[record]]
compound = "CCOC(=O)NNc1nncc2ccccc12"
observed = 0.9

[[record]]
compound = "CC1(C)S[C@@H]2[C@H](NC(=O)C(C(=O)O)c3ccccc3)C(=O)N2[C@H]1C(=O)O (stereo partly drawn)"
observed = 1.23


Could I get normalised cell number for every one of these entries?
1. Cc1cc(O)cc(C)c1Cl
2. CC(C)N=C(N)/N=C(\N)Nc1ccc(Cl)cc1
3. O=C(CCCN1CCN(c2ccccn2)CC1)c1ccc(F)cc1
4. Fc1ccc(C(c2ccc(F)cc2)N2CCN(C/C=C/c3ccccc3)CC2)cc1
5. CC(=O)OCC(COC(C)=O)OC(C)=O

Given back:
[0.93, 1.2, 1.22, 0.95, 1.22]

For each listed entry, give its normalised cell number.
1. NC(CO)C(=O)NNCc1ccc(O)c(O)c1O (stereo not drawn)
2. CC(=O)NCCCCCC(=O)O

Given back:
1: 1.23; 2: 0.95

Hey, can you go through the list below and give me normalised cell number for every item?
1. O=C(O)c1ccc(S(=O)(=O)N(Cl)Cl)cc1
2. Cc1cc(C2CCCCC2)n(O)c(=O)c1

Given back:
1. 1.08
2. 1.04

src = PubChem BioAssay
